- Protocol Description: Half-life in male C57BL/6J mouse at 10 mg/kg, SC by LC-MS analysis
- Assay type: ADME, organism-based
- Experimental Parameters: in vivo
Quantity Measured: half-life (h)
Output spec: scalar in h, unitless text.

For the compound `CCCCC(=O)N1CC2(C1)CN(c1ccccc1-c1nnn[nH]1)C2` , report half-life.
1.03

---

- Experimental System: Leukotriene B4 receptor 2 (Homo sapiens, UniProt Q9NPC1)
- Sequence (Q9NPC1 whole entry): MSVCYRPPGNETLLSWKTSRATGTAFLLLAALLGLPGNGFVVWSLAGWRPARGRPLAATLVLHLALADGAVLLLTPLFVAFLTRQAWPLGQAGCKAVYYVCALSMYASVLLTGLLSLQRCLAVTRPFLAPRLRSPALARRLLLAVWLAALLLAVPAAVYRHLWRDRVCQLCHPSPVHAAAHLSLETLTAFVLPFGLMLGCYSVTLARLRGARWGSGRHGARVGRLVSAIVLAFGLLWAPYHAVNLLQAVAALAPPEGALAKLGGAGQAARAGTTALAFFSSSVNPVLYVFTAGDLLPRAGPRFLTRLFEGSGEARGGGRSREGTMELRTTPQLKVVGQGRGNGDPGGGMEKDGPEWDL
- Protocol Description: Agonist activity at human BLT2 expressed in CHO-K1 cells overexpressing GNAi2 assessed as inhibition of forskolin-induced cAMP accumulation preincubated for 40 mins followed by forskolin addition and measured after 20 mins by HTRF assay
- Assay type: functional, cell-based
Quantity Measured: EC50 (nM)
Please respond with the number in nM and leave the unit unwritten.

Quick one: give measured EC50 for `CCCCC[C@H](O)/C=C/C=C/C/C=C\CCCC(=O)O`
1.4

---

- Protocol Description: Tmax in male C57BL/6J mouse at 10 mg/kg, po by LC-MS analysis
- Format: ADME, organism-based
- Experimental Parameters: in vivo
Quantity Measured: Tmax (min)
# value in min; strip the unit string

For the compound `CCCCC(=O)N1CC2(C1)CN(c1ccccc1-c1nnn[nH]1)C2` , give its measured Tmax value.
15

---

- Protocol Description: Aqueous solubility of compound in PBS buffer at pH 7.4 by precipitation based plate reader analysis
- Type: physicochemical
Quantity Measured: solubility kinetic (µM)
Output spec: scalar in µM, unitless text.

• CCc1nnc(N2Cc3ccc(-c4ccccc4-c4nnn[nH]4)cc3C2)o1 = 750
• CCc1cnc(N2Cc3ccc(-c4ccccc4-c4nnn[nH]4)cc3C2)s1 = 250

Moving on to the next molecule.
Give me measured solubility kinetic, please, for this molecule: `CCCCC(=O)N(Cc1ccc(-c2ccccc2C(=O)O)cc1)c1ccccc1`
250

---

- Protocol Description: AUC (0 to infinity) in male C57BL/6J mouse at 3 mg/kg, iv by LC-MS analysis
- Format: ADME, organism-based
- Experimental Parameters: in vivo
Quantity Measured: AUC(0-inf) (ng·h/mL)
Note: unit ng·h/mL is implicit; provide only the numeric part.

For the compound `CCCCC(=O)N1CC2(C1)CN(c1ccccc1-c1nnn[nH]1)C2` , give its measured AUC(0-inf) value.
1020
